protocol_conditions: in n-propanol, 323.15 K
Please go through the items and note down their solubility (mole fraction).
One number for each entry.

{"structure_notation": "COc1cc(-c2cc(-c3ccc(Cl)cc3)[nH]c(=O)c2C#N)ccc1O", "solubility (mole fraction)": 0.00102}
{"structure_notation": "COc1cc(-c2cc(-c3ccc(O)cc3)[nH]c(=O)c2C#N)ccc1O", "solubility (mole fraction)": 0.00111}
{"structure_notation": "COc1ccc(-c2cc(-c3ccc(O)c(OC)c3)c(C#N)c(=O)[nH]2)cc1", "solubility (mole fraction)": 0.00098}
{"structure_notation": "COc1cc(-c2cc(-c3ccc(F)cc3)[nH]c(=O)c2C#N)ccc1O", "solubility (mole fraction)": 0.00113}

Input line: Requested field: solubility (mole fraction). Item: "COc1cc(-c2cc(-c3ccc(Br)cc3)[nH]c(=O)c2C#N)ccc1O"
Output line: 0.000997

----------
protocol_conditions: in n-butanol, 318.15 K
reported_endpoint: solubility (mole fraction)
Give bare numbers.

Would you please look over these solved cases?
{"structure_notation": "COc1cc(-c2cc(-c3ccc(Cl)cc3)[nH]c(=O)c2C#N)ccc1O", "solubility (mole fraction)": 0.000609}
{"structure_notation": "COc1cc(-c2cc(-c3ccc(O)cc3)[nH]c(=O)c2C#N)ccc1O", "solubility (mole fraction)": 0.000728}
{"structure_notation": "COc1cc(-c2cc(-c3ccc(Br)cc3)[nH]c(=O)c2C#N)ccc1O", "solubility (mole fraction)": 0.000538}
{"structure_notation": "COc1cc(-c2cc(-c3ccc(F)cc3)[nH]c(=O)c2C#N)ccc1O", "solubility (mole fraction)": 0.000767}

Turning to the following compound.
Input line: Requested field: solubility (mole fraction). Item: "COc1ccc(-c2cc(-c3ccc(O)c(OC)c3)c(C#N)c(=O)[nH]2)cc1"
Output line: 0.000497

----------
Please go through the items and note down their solubility (mole fraction).
protocol_conditions: in n-propanol, 298.15 K
Give bare numbers.

Would you please look over these solved cases?
{"structure_notation": "COc1cc(-c2cc(-c3ccc(Br)cc3)[nH]c(=O)c2C#N)ccc1O", "reported_endpoint": "solubility (mole fraction)", "experimental_result": 0.000757}
{"structure_notation": "COc1cc(-c2cc(-c3ccc(F)cc3)[nH]c(=O)c2C#N)ccc1O", "reported_endpoint": "solubility (mole fraction)", "experimental_result": 0.000864}
{"structure_notation": "COc1ccc(-c2cc(-c3ccc(O)c(OC)c3)c(C#N)c(=O)[nH]2)cc1", "reported_endpoint": "solubility (mole fraction)", "experimental_result": 0.000733}
{"structure_notation": "COc1cc(-c2cc(-c3ccc(Cl)cc3)[nH]c(=O)c2C#N)ccc1O", "reported_endpoint": "solubility (mole fraction)", "experimental_result": 0.000791}

Turning to the following compound.
Input line: Requested field: solubility (mole fraction). Item: "COc1cc(-c2cc(-c3ccc(O)cc3)[nH]c(=O)c2C#N)ccc1O"
Output line: 0.000847

----------
Please go through the items and note down their solubility (mole fraction).
protocol_conditions: in methanol, 323.15 K

Would you please look over these solved cases?
{"structure_notation": "COc1cc(-c2cc(-c3ccc(O)cc3)[nH]c(=O)c2C#N)ccc1O", "reported_endpoint": "solubility (mole fraction)", "experimental_result": 0.000724}
{"structure_notation": "COc1cc(-c2cc(-c3ccc(Br)cc3)[nH]c(=O)c2C#N)ccc1O", "reported_endpoint": "solubility (mole fraction)", "experimental_result": 0.000682}
{"structure_notation": "COc1cc(-c2cc(-c3ccc(F)cc3)[nH]c(=O)c2C#N)ccc1O", "reported_endpoint": "solubility (mole fraction)", "experimental_result": 0.000754}
{"structure_notation": "COc1cc(-c2cc(-c3ccc(Cl)cc3)[nH]c(=O)c2C#N)ccc1O", "reported_endpoint": "solubility (mole fraction)", "experimental_result": 0.000705}

Turning to the following molecule.
Input line: Requested field: solubility (mole fraction). Item: "COc1ccc(-c2cc(-c3ccc(O)c(OC)c3)c(C#N)c(=O)[nH]2)cc1"
Output line: 0.000625
